Values were extracted from patent US11306092B2.

# Target Desc: UniProt:Q9NR97
# Sequence (Q9NR97 27-1041): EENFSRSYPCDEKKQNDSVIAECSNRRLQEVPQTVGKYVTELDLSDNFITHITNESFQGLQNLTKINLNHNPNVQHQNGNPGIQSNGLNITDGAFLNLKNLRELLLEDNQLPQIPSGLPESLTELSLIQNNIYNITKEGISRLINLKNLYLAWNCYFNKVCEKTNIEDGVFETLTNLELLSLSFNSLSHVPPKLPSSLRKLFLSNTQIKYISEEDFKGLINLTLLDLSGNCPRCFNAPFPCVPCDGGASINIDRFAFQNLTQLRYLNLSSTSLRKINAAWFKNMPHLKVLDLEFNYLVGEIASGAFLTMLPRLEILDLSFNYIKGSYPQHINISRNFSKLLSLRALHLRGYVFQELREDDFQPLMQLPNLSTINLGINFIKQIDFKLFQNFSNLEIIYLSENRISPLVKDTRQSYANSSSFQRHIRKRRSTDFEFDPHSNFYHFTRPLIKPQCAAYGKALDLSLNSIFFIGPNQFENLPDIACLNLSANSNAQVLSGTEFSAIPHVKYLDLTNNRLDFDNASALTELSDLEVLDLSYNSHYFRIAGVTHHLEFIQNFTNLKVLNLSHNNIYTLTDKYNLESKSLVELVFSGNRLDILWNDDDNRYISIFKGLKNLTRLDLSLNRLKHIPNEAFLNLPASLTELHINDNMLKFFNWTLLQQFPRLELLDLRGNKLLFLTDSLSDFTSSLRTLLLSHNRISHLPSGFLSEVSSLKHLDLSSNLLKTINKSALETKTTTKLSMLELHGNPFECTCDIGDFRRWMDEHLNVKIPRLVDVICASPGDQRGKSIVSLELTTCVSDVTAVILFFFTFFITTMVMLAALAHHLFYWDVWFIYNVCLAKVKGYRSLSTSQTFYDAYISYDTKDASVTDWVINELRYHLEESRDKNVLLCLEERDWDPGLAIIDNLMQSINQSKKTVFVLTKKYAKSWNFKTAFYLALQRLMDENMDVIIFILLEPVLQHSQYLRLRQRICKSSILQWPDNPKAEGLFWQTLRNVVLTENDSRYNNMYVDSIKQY
# Assay Explanation: TLR8 inhibition reporter assay (HEK-Blue SEAP reporter)
# Stated Conditions: HEK-Blue cells overexpressing human TLR8; R848 15.9 μM; 22 hour incubation
Assay Readout: log10(IC50) (log10 of the value in nM)

- Compound: "CCc1c(-c2ccnc(C)c2)[nH]c2ccc(N3CCC(OC4CCN(C(C)C)CC4)CC3)cc12"
  Endpoint Value: 4.68
- Compound: "Cc1cc(-c2[nH]c3ccc(N4CCC(N5CCN(C(C)C)CC5)C4=O)cc3c2C(C)C)cc(C)n1 (single isomer, unassigned) [Example 6]"
  Endpoint Value: 0.69
- Compound: "COc1ccc(-c2[nH]c3ccc(NC(=O)[C@H](N)CCC(N)=O)cc3c2C(C)C)cc1OC"
  Endpoint Value: 2.33
- Compound: "COc1ccc(-c2[nH]c3ccc(N4CCC(N5CCCNCC5)CC4)cc3c2C(C)C)cc1OC"
  Endpoint Value: 0.72
- Compound: "COc1ccc(-c2[nH]c3ccc(NC4CC(C)(C)N(C)C(C)(C)C4)cc3c2C(C)C)cc1OC"
  Endpoint Value: 0.91
- Compound: "COc1ccc(-c2[nH]c3ccc(N4CCC(N5CCCC5)CC4)cc3c2C(C)C)cc1OC"
  Endpoint Value: 0.49
- Compound: "COc1ccc(-c2[nH]c3ccc(NC4CCC(NCCN5CCOCC5)CC4)cc3c2C(C)C)cc1OC (stereo not shown)"
  Endpoint Value: 2.44
